Test target: T1, Formyl-Peptide Receptor 1 (UniProt P21462 1-350, limits assumed)
T1 sequence (looked up): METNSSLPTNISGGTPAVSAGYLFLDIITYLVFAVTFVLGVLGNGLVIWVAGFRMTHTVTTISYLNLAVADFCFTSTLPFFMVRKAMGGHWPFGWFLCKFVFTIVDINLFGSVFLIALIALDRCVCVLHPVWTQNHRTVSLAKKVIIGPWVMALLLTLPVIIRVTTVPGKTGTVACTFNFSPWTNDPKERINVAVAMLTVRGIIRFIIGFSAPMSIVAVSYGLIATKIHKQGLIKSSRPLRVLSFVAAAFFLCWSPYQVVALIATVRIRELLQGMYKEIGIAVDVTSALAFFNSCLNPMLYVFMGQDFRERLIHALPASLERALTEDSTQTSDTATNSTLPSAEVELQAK
Assay name: cell-based or functional assay
Bridges are numbered along the chain shown (N, C = ends). [ ]: non-standard residue; d: D form. Dab = NCC[C@H](N)C(=O)O
Parameter: β-Arrestin IC50 (nM)
Dear colleague, please return just the value in nM, with no unit written.

Task: Look at this binder and give its reported β-Arrestin IC50. cyclo([Dab]HKCHG[dP]WTICYEK[dP]E) (disulfide 4-11; SMILES CC[C@H](C)[C@@H]1NC(=O)[C@H]([C@@H](C)O)NC(=O)[C@H](Cc2c[nH]c3ccccc23)NC(=O)[C@H]2CCCN2C(=O)CNC(=O)[C@H](Cc2c[nH]cn2)NC(=O)[C@@H]2CSSC[C@H](NC1=O)C(=O)N[C@@H](Cc1ccc(O)cc1)C(=O)N[C@@H](CCC(=O)O)C(=O)N[C@@H](CCCCN)C(=O)N1CCC[C@@H]1C(=O)N[C@@H](CCC(=O)O)C(=O)N[C@@H](CCN)C(=O)N[C@@H](Cc1c[nH]cn1)C(=O)N[C@@H](CCCCN)C(=O)N2) [cyclo(-Dab-His-Lys-Cys-His-Gly-^DPro-Trp-Thr-Ile-Cys-Tyr-Glu-Lys-^DPro-Glu-)]
Result: 144
